Test system: UO-31 renal
Method description: NCI tumour cell line growth inhibition, 48 h
Quick rule: TGI of at least 40 µM means label 1, below that means label 0.

>>> print(df.to_string())
                                   molecule  category
0  CC(=O)O[C@H]1CC[C@@]2(C)C(=CC[C@@H]3C2CC[C@]2(C)Nc4c(cnn4-c4ccccc4)CC32)C1 (stereo partly drawn)   label 1
1  FC(F)(F)c1cccc(C=NC23CC4CC(CC(C4)C2)C3)c1   label 1
2           CCn1cc(C(=O)O)c(=O)c2ccc(C)nc21   label 1

Attention now shifts to the item below.
Query: Can CCC(=O)Nc1cccc(NC(=O)c2c(Cl)c(Cl)c(Cl)c(Cl)c2-c2nc3ccccc3[nH]2)c1 be said to have TGI at or above 40 µM?
Reply: label 1

###

System: OVCAR-4 ovarian
Method description: NCI tumour cell line growth inhibition, 48 h
Would you kindly list TGI for each of these compounds?
Answers are plain numbers, in µM.

In [3]: df
Out[3]:
                                   compound        tested_on  measured_value
0  O=C1c2c(O)ccc(O)c2C(=O)c2c(NCCNC(=O)C(O)C(O)C(O)C(O)CO)ccc(NCCNC(=O)C(O)C(O)C(O)C(O)CO)c21 (stereo not given)  OVCAR-4 ovarian           0.771

// moving on: another record for TGI
Query: Query TGI on OVCAR-4 ovarian for COc1cc(C=C2c3ccccc3C(=O)c3ccccc32)ccc1OCCCCOc1cc2c(cc1OC)C(=O)N1CCCC1C=N2 (stereo not given)
Reply: 8.45

###

System: OVCAR-4 ovarian
Method description: NCI tumour cell line growth inhibition, 48 h
Outcome measure: GI50

Solved cases below.
>>> df
                                   compound  measured_value
0  C=C(C)[C@@H]1/C=C(/C(C)C)CC[C@@]2(C)OC2CC[C@H](C)CC1=O (stereo partly drawn)         73.8 µM
1  N#Cc1cc(-c2ccnc(Nc3ccc(NC(=O)CCl)cc3)n2)ccc1N1CCCC1         3.49 µM

// moving on: another record for GI50
Query: Form field: reported GI50 of Nc1nc(SCc2ccccc2)nc2[nH]ncc12
Reply: 12.2 µM

###

System: EKVX NSCLC
Method description: NCI tumour cell line growth inhibition, 48 h
Would you kindly list TGI for each of these molecules?

Molecule	TGI
CCCOc1ccc2sc(NC(=O)c3cc([N+](=O)[O-])cc([N+](=O)[O-])c3)nc2c1	> 100 µM

Go through the items and report each one's TGI.
1. NC(C/C=C/P(=O)(O)O)C(=O)O (stereo not given)
2. O=C(CCC(=O)Nc1ccc(Cl)c(Cl)c1)CC(=O)c1ccc(Cl)cc1
3. Cn1cc(-c2csc(-c3c[nH]c4ccc(F)cc34)n2)c2cccnc21

Reply:
["> 100 µM", "> 100 µM", "> 100 µM"]

###

System: SF-295 CNS
Method description: NCI tumour cell line growth inhibition, 48 h
Would you kindly list GI50 for each of these molecules?

                            compound_string   tested_on  measured_value
0    NCCCNc1nc2ccccc2c2c(=O)c3cccc(F)c3sc12  SF-295 CNS         1.74 µM
1  COc1ccccc1/C=C/C(=O)c1ccc(Nc2nc(Nc3ccc(F)cc3)nc(Nc3ccc(F)cc3)n2)cc1  SF-295 CNS         14.4 µM
2  CO[C@H]1/C=C/[C@@](C)(O)/C=C/C(=O)O[C@H](C)[C@@H](C)CC/C=C/1C  SF-295 CNS         16.5 µM

// moving on: another record for GI50
Query: Form field: reported GI50 of CN(c1ccc(Cl)c(Cl)c1)c1cnc2cc(N)cc(N)c2n1
Reply: 3.58 µM

###

Would you kindly list TGI for each of these compounds?
Tested on: NCI/ADR-RES ovarian
Method description: NCI tumour cell line growth inhibition, 48 h

Solved cases below.
Compound	TGI
O=C1c2ccc3c4ccc5c6c(ccc(c7ccc(c2c37)C(=O)N1CCN1CCCCC1)c64)C(=O)N(CCN1CCCCC1)C5=O	> 100 µM
CCOc1ccccc1/C=C(/C#N)C(N)=O	> 100 µM
O=C1NC(=O)/C(=C/c2ccc3ncccc3c2)S1	> 25 µM
COC(=O)C1=C(OC(=O)/C(=C/c2ccccc2)c2ccc([N+](=O)[O-])cc2)C(C(=O)OC)[C@@]2(O)[C@@H](C(=O)OC)[C@H](C)C[C@@H]1[C@@H]2C(=O)OC (some centres undefined)	> 100 µM
C(=N\c1cc2cc(Sc3ccccc3)ccc2[nH]1)/c1ccccc1	> 12.5 µM

Go through the items and report each one's TGI.
1. COc1cc(/C=C/[N+](=O)[O-])c([N+](=O)[O-])cc1OC
2. CC1COC(c2cn[nH]c2C(N)=O)C1O (centres undefined)
3. CC(C)(C)c1ccc2c(c1)OP1(Oc3cccc4cccnc34)(O2)Oc2ccc(C(C)(C)C)cc2O1
4. COC(=O)N/N=C(/CC1(O)C(=O)Nc2ccc([N+](=O)[O-])cc21)c1ccccc1 (centres undefined)

Reply:
1: 10.1 µM; 2: > 100 µM; 3: 11.1 µM; 4: 55.7 µM

###

System: EKVX NSCLC
Method description: NCI tumour cell line growth inhibition, 48 h
Outcome measure: GI50

Solved cases below.
>>> print(df.to_string())
                                   molecule  measured_value
0  CC(=O)c1ccc(Nc2cc(-n3nnc4ccccc43)nc3ccccc23)cc1         9.41 µM
1  CN(C)CCCNc1nc2ccccc2c2c(=O)c3cc(F)ccc3sc12         1.59 µM
2  COc1cc(C2CC(c3ccc(SC)cc3)=NN2C(C)=O)cc(OC)c1OC (centres undefined)         17.7 µM

// moving on: another record for GI50
Query: Query GI50 on EKVX NSCLC for CN(c1ccc(Cl)c(Cl)c1)c1cnc2cc(N)cc(N)c2n1
Reply: 3.63 µM

###

Tested on: TK-10 renal
Method description: NCI tumour cell line growth inhibition, 48 h
Would you kindly list TGI for each of these compounds?

Compound	Tested on	TGI
COc1cccc(-c2nc(-c3cnccn3)n(C3OC(CO)C(O)C3O)n2)c1 (stereo unspecified)	TK-10 renal	> 100 µM
CCCCCCCCNC(=O)SCCCC	TK-10 renal	> 100 µM
Clc1ccc(N=C2c3ccccc3CN2c2ccc(Cl)cc2)cc1	TK-10 renal	> 100 µM

Go through the items and report each one's TGI.
1. Cc1cccc(NS(=O)(=O)c2ccc3c(c2)OCCOCCOCCOCCO3)c1
2. COc1ccc2nccc(/C=C/c3ccc(N(C)C)cc3)c2c1
3. CCOc1ccccc1/C=C(/C#N)C(N)=O

Reply:
["> 100 µM", "> 10 µM", "> 100 µM"]

###

Tested on: SW-620 colon
Method description: NCI tumour cell line growth inhibition, 48 h
Would you kindly list TGI for each of these compounds?

Compound	Tested on	TGI
Cn1c(C2CCCc3c2c2ccccc2n3C)cc2ccccc21 (stereo not drawn)	SW-620 colon	> 318 µM
CN1CCN(CCCNN)CC1	SW-620 colon	> 100 µM
C#CC1(O)C(COP(=O)(O)OC(COCCCCCCCCCCCCCCCCCC)COP(=O)(O)OCC2OC(n3cc(C)c(=O)[nH]c3=O)CC2N=[N+]=[N-])OC(n2ccc(N)nc2=O)C1O (stereo not drawn)	SW-620 colon	33.4 µM
CC(C)NC(=O)OCc1c(COC(=O)NC(C)C)c(-c2cc[n+](COC(=O)CC(C)(C)C)cc2)n2c1CCC2	SW-620 colon	> 100 µM
COC(=O)CCCC(=O)C1=Nc2ccccc2CN(c2ccc(Cl)cc2)N1	SW-620 colon	> 100 µM
C#CCCOC(=O)CC1=C(C)/C(=C/c2ccc(S(C)=O)cc2)c2ccc(F)cc21 (stereo not drawn)	SW-620 colon	29.9 µM
COc1cc(C=C2c3ccccc3C(=O)c3ccccc32)ccc1OCCCCOc1cc2c(cc1OC)C(=O)N1CCCC1C=N2 (stereo not drawn)	SW-620 colon	0.501 µM
CCCCN(CC)C(=O)C1=C(C)NC(C)=C(C(=O)N(CC)CCCC)C1	SW-620 colon	> 100 µM

Go through the items and report each one's TGI.
1. CN(C)CCNC(=O)c1cccc2nc3c(ccc4ccccc43)nc12
2. COC(=O)N/N=C(/CC1(O)C(=O)Nc2ccc([N+](=O)[O-])cc21)c1ccccc1 (stereo not drawn)
3. C[Si](C)(C)CNC(=O)OCc1ccccc1
4. C1CSC2=C(S1)SC1=C(S2)SC(=C2SC3=C(SC4=C(SCCS4)S3)S2)S1
5. O=C(/C=C/c1c(-c2ccccc2)[nH]c2ccccc12)S(=O)(=O)c1ccccc1
6. N#CC1=C(N)OC2=C(CCCc3ccc([N+](=O)[O-])cc32)C1c1ccccc1 (stereo not drawn)
7. COc1cc(C2CC(c3ccc(SC)cc3)=NN2C(C)=O)cc(OC)c1OC (stereo not drawn)

Reply:
3.61 µM
> 69.4 µM
> 100 µM
> 100 µM
> 100 µM
15.7 µM
> 100 µM
